read-out: ABC Transporter (ABCC2), ABCC2 (gene 1244); experiment: LTEA_HepaRG_ABCC2: Life Technologies and Expression Analysis (LTEA) Assay for ABC Transporter (ABCC2) using HepaRG (AID 2283464); settings: mRNA level, 48 h; actives raise or lower the signal
The source made the active and inactive calls. Rule for the calls: active = hit-call score of the fitted dose curve at least 0.9, where 1 is the maximum; inactive = score below 0.9.
Please state which outcome applies, choosing from active, inactive

NC(=O)c1nc(-c2cccc(-c3cc(F)ccc3OCC(F)(F)C(F)(F)F)c2)n[nH]1 : active
O=c1[nH]sc2ccccc12 : inactive
O=C(O)Cn1c(=O)n(Cc2ccc(Br)cc2F)c(=O)c2ccc(Cl)cc21 : inactive
O=CCCCC=O : inactive
CN(C)C(=O)C1(N2CCCCC2)CCN(CC[C@@]2(c3ccc(Cl)c(Cl)c3)CN(C(=O)c3ccccc3)CCO2)CC1 : active
CN1C(=O)CC[C@H]1c1cccnc1 : inactive

# fetch the recorded call for CC(O)CC(C)(C)O (stereo unspecified) here
inactive

# fetch the recorded call for CC(C)(c1cc(Br)c(O)c(Br)c1)c1cc(Br)c(O)c(Br)c1 here
inactive

# fetch the recorded call for OC12N=C(c3ccccc3)SC1Cc1cc(Cl)ccc12 (stereo unspecified) here
inactive

# fetch the recorded call for CCN(Cc1cccc(S(=O)(=O)O)c1)c1ccc(C(=C2C=CC(=[N+](CC)Cc3cccc(S(=O)(=O)O)c3)C=C2)c2ccccc2S(=O)(=O)[O-])cc1 here
inactive

# fetch the recorded call for Cc1ccc2oc(CN(Cc3ccccc3)C(=O)Nc3c(F)cc(F)cc3F)c(-c3ccc(Cl)cc3)c2c1 here
active

# fetch the recorded call for O=C(O)c1ccccc1-n1cc(C(=O)O)c(=O)c2cc(Nc3c(F)cc(F)cc3Cl)c(Cl)cc21 here
active

# fetch the recorded call for c1ccc2ccccc2c1 here
inactive

# fetch the recorded call for Clc1cc(Cl)c2c(c1)N=C1CCCCCN1C2 here
inactive

# fetch the recorded call for CCCCCCCCCCCO here
inactive

# fetch the recorded call for CC1(C)NC(=O)N(c2ccc([N+](=O)[O-])c(C(F)(F)F)c2)C1=O here
inactive

# fetch the recorded call for CC/C(=C(/CC)c1ccc(O)cc1)c1ccc(O)cc1 here
active

# fetch the recorded call for CCCCCCCCCCCCO here
inactive

# fetch the recorded call for O=C(OCCCCCCOC(=O)c1ccccc1)c1ccccc1 here
inactive

# fetch the recorded call for O=c1ccc2ccccc2o1 here
inactive

# fetch the recorded call for C[C@]12CC[C@@H]3c4ccc(O)cc4CC[C@H]3[C@@H]1CC[C@H]2O here
inactive
